Reference for the values: ChEMBL document CHEMBL1131996

study_target: 72 kDa type IV collagenase (Homo sapiens)
Sequence (P08253 whole entry): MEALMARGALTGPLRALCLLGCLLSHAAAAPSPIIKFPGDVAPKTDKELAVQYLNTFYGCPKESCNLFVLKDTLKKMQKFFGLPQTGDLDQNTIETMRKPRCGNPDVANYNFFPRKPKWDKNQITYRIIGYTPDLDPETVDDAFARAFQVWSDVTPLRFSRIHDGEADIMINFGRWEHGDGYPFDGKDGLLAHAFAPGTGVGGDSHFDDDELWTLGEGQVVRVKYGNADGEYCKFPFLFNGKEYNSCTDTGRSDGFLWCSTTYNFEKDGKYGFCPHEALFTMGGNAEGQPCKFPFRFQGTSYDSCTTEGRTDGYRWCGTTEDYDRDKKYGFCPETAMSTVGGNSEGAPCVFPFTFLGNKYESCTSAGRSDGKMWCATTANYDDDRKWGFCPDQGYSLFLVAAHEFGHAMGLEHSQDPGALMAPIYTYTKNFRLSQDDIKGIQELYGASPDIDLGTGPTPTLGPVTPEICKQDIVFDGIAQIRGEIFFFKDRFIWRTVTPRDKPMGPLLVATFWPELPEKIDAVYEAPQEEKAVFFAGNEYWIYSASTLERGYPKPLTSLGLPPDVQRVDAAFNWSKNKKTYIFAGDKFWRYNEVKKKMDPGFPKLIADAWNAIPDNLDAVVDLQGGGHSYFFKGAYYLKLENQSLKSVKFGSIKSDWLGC
assay_name: Inhibitory activity against matrix metalloprotease-2 (MMP-2).
metric: pIC50
Quick note: pIC50 means taking -log10 of the concentration in moles per liter.

Tell me the measured pIC50 of "CCCCCCCN(CC(=O)N(CCc1ccc(F)cc1)CC(=O)NO)C(=O)Nc1ccc(Oc2ccccc2)cc1" , please.
3.94

Moving on to the next compound: "CCCCCCCN(CC(=O)NO)C(=O)CN(CCCc1ccccc1)C(=O)Nc1ccc(Oc2ccccc2)cc1"
3.82

Repeat for the following compound: "O=C(CN(C(=O)CN(C(=O)Nc1ccc(Oc2ccccc2)cc1)C(c1ccccc1)c1ccccc1)C(c1ccccc1)c1ccccc1)NO"
4.30

Follow-up entry: "CSc1ccccc1NC(=O)N(CCCc1ccccc1)CC(=O)N(CC(=O)NO)C(C)(C)C"
3.82

Try "O=C(CN(CCCCc1ccccc1)C(=O)CN(CCCCc1ccccc1)C(=O)Nc1ccc(Oc2ccccc2)cc1)NO" next.
4.28
